This collection of values is drawn from patent US20110287547A1.

# TEST METHOD NOTES: Cytotoxicity Assay (MTS Assay), Example 1 and CPPs
# Assay type: cell-based, human
# RECORDED CONDITIONS: human
Where a SMILES comes first, the peptide text is derived from it.
MEASUREMENT TYPE: IC50 at 24 h

Query: Using the record for CSCC[C@H](NC(=O)[C@H](CCCCN)NC(=O)[C@H](Cc1c[nH]c2ccccc12)NC(=O)[C@H](CCCCN)NC(=O)[C@@H](N)CCCCN)C(=O)N[C@@H](CCCNC(=N)N)C(=O)N[C@@H](CCCNC(=N)N)C(=O)N[C@@H](CC(N)=O)C(=O)N[C@@H](CCC(N)=O)C(=O)N[C@@H](Cc1ccccc1)C(=O)N[C@@H](Cc1c[nH]c2ccccc12)C(=O)N[C@H](C(=O)N[C@@H](CCCCN)C(=O)N[C@H](C(=O)N[C@@H](CCC(N)=O)C(=O)N[C@@H](CCCNC(=N)N)C(=O)NCC(=O)O)C(C)C)C(C)C [Alp] (H-KKWKMRRNQFWVKVQRG-OH) , report its IC50 at 24 h.
Response: ~2140 µg/mL

====

# TEST METHOD NOTES: Assessment of cytotoxicity (MTS Assay), Example 4
# Assay type: cell-based, human
# RECORDED CONDITIONS: human, A549-luc-C8 cells, up to 5 mg/mL
Where a SMILES comes first, the peptide text is derived from it.
MEASUREMENT TYPE: IC50 at 24 h

Query: Using the record for N=C(N)NCCC[C@H](NC(=O)[C@H](CCCCN)NC(=O)[C@H](CCCCN)NC(=O)[C@H](CCCNC(=N)N)NC(=O)[C@H](CCCNC(=N)N)NC(=O)[C@H](Cc1c[nH]cn1)NC(=O)[C@H](CCCNC(=N)N)NC(=O)[C@H](CCCNC(=N)N)NC(=O)[C@H](CCCNC(=N)N)NC(=O)[C@H](CCC(N)=O)NC(=O)[C@H](CCCNC(=N)N)NC(=O)[C@H](CCCNC(=N)N)NC(=O)[C@H](CCCCN)NC(=O)[C@H](CCCCN)NC(=O)[C@@H](N)CCCNC(=N)N)C(=O)O [dTAT] (H-RKKRRQRRRHRRKKR-OH) , report its IC50 at 24 h.
Response: ~4000 µg/mL
